Test system: TRPC4 beta (transient receptor potential cation channel C4), mouse
Test: TRPC4 cation channel opening, retest – cell-based, Fluo4 calcium, HEK293 TRPC4beta/mu-opioid, duplicates, 10 µM, confirmation (AID 2426)
Settings: Fluo4 calcium fluorescence, at 10 µM
Calls of active or inactive are those of the source.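 The calls were made as follows: active = fluorescence ratio normalized to control raised more than 50% in primary screen plus both repeat runs; inactive = the rest.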
Possible outcomes: active, inactive

Cc1cccc(/C=N/NC(=O)c2cccc(Cl)c2)n1 : inactive
Cc1cc(OCC(=O)NNC(=S)NC(=O)c2ccc(Br)o2)ccc1Cl : inactive
c1cnc(N2CCN(c3cnccn3)CC2)nc1 : inactive
O=C(Nc1ccncc1)c1ccc(Cl)c(S(=O)(=O)N2CCc3ccccc32)c1 : active
COc1ccc(CNC(=O)CN(C)Cc2ccccc2F)cc1OC : inactive
COc1ccc(/C=C2/SC(=S)N(NS(=O)(=O)c3ccc(C)cc3)C2=O)cc1 : inactive
CCOC(=O)C1CCN(CC(O)COc2ccc(C(C)(C)C)cc2)CC1 (centres undefined) : inactive
CCOC(=O)C1=C(NC(=S)NC(=O)c2ccccc2)c2ccccc2CC1(C)C : inactive
CCOC(=O)c1c(-c2cccc(C)c2)csc1NC(=O)C1CC=CCC1C(=O)O (centres undefined) : inactive
CC(C)Oc1ccccc1C1CC(=O)Nc2cc3c(cc21)OCCO3 (centres undefined) : inactive
CC1CC(C)CN(CCCNC(=O)Cn2cccc2C(=O)c2ccccc2)C1 (centres undefined) : active
Cc1ccc(N(C(=O)c2snc(C(N)=O)c2N)C(C(=O)NCC2CCCO2)c2ccc(C)o2)c(C)c1 (centres undefined) : inactive
COc1cc(/C=C2\SC(=O)N(c3ccccc3Cl)C2=O)cc([N+](=O)[O-])c1O : inactive
O=C(c1ccco1)N1CCN(C/C=C/c2ccccc2)CC1 : inactive
CN(C)C(CNC(=O)c1ccccc1OCc1ccc(Cl)cc1)c1ccco1 (centres undefined) : inactive
COc1cccc(C2=NN(C(=O)c3ccco3)C(c3ccco3)C2)c1 (centres undefined) : inactive
Cc1ccc(-c2csc3ncnc(NCCN4CCOCC4)c23)cc1 : inactive
O=C(NCc1ccccc1)C1=C[C@H](c2ccccc2)C[C@H](OCc2ccc(CO)cc2)O1 : active
COc1ccc(CC2(CO)CCN(C/C=C/c3ccccc3OC)CC2)cc1 : inactive

====

Molecular target: Short transient receptor potential channel 4 (Mus musculus) (UniProt Q9QUQ5)
Sequence (Q9QUQ5 whole entry, looked up): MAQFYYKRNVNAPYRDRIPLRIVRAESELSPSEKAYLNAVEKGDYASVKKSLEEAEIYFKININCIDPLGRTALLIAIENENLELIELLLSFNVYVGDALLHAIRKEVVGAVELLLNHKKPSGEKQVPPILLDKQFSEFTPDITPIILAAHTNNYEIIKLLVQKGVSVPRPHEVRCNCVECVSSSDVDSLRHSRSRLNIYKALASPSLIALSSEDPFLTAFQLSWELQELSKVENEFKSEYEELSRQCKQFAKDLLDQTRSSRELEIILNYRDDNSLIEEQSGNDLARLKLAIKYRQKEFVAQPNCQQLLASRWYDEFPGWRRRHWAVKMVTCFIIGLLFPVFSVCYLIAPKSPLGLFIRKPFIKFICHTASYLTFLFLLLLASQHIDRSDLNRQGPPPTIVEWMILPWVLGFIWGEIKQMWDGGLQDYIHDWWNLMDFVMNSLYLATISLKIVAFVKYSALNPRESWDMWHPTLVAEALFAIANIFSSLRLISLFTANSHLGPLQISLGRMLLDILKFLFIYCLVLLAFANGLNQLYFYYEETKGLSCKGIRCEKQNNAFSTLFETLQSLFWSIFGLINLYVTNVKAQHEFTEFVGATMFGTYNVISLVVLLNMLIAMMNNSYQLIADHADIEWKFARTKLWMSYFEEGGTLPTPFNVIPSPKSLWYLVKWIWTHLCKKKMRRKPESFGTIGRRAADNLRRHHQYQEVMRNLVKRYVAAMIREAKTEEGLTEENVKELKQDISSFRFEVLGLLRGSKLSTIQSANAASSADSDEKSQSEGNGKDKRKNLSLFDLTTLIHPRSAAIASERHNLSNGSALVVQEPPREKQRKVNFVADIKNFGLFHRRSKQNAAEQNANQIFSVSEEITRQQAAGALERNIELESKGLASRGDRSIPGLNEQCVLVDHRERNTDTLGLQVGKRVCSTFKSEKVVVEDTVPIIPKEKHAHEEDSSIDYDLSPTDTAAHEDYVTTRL
Test: blockers of DAMGO-evoked TRPC4 calcium flux – cell-based, Fluo4, HEK293 TRPC4beta/mu-opioid, confirmation (AID 2636)
Conditions: at 10 µM
Active and inactive are the calls of the source.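 Rule for the calls: active = calcium signal cut by more than 3 SD below the full-agonist control yet still positive, in both repeats and the earlier primary screen; inactive = the rest.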
Outcomes: active, inactive

CCOCCCNCc1ccc(OCc2ccccc2Cl)cc1 : inactive
CCC(CC)c1nnc(NC(=O)c2c(C)nn(Cc3ccccc3Cl)c2C)s1 : inactive
Oc1c(Br)cc(Br)c(/C=N/n2c(-c3ccccc3)n[nH]c2=S)c1Br : inactive
c1coc(CN=C2NC(=NCc3ccco3)c3ccccc32)c1 : active
Cc1ccccc1N1CC(O)(c2ccccc2)[N+]2=C1SCC2 (stereo unspecified) : inactive
CCOC(=O)C1(CCOc2ccccc2)CCN(Cc2cccn2-c2ncccn2)CC1 : active
CCCCCCCCCCOC(=O)Cn1c(COc2ccccc2)[n+](C)c2ccccc21 : inactive
Cc1n[nH]c(C)c1Cc1c(F)cccc1Cl : active
Cc1ccc2c(c1)N(C(=O)CCC(=O)Nc1ccccc1Cl)CC(C)O2 (stereo unspecified) : active
CN(C)CCNc1ccc(Cl)cc1[N+](=O)[O-] : inactive
COc1ccc(CN2CCN(c3nc4ccccc4s3)CC2)cc1 : inactive
Cc1ccc(-c2ccc3c(c2)S(=O)(=O)c2ccccc2C3=O)cc1 : inactive
NC(=O)c1ccc(N2CCN(c3ncc(C(F)(F)F)cc3Cl)CC2)cc1 : inactive
CC(C)(C)C(=O)NCCCc1nc2ccccc2n1CCCOc1ccc(Cl)cc1 : inactive
Cc1cc(Cl)cc(C)c1OCCCCCn1ccnc1 : inactive
COC(=O)CSc1nnc(-c2sc3cc(OC)ccc3c2Cl)n1C : active
CN1CCN(c2ccc(NC(=O)c3ccc(-c4ccc(Cl)cc4)o3)cc2)CC1 : active
O=C(CC1C(=O)NCCN1Cc1cccc(Oc2ccccc2)c1)NCCc1ccccn1 (stereo unspecified) : inactive
OCC(Cc1ccccc1)NCc1ccccc1C(F)(F)F (stereo unspecified) : active
CC(C)n1c(NCc2c[nH]c3ccccc23)nc2ccccc21 : active
COc1ccccc1-c1cc(-c2ccccc2)nc(=O)[nH]1 : inactive
CCOC(=O)CC(NC(=O)c1cc2cc(Cl)cc(Cl)c2oc1=O)c1cccc([N+](=O)[O-])c1 (stereo unspecified) : inactive
CC(C)Oc1ccc(CCC(=O)NNC(=S)NCc2ccccc2)cc1 : inactive
O=C(Nc1ccc(F)cc1)Nc1cc(S(=O)(=O)N2CCOCC2)ccc1N1CCCC1 : inactive
COc1ccc(/C=N/NC(=O)C2COc3ccccc3O2)cc1OC (stereo unspecified) : inactive
CCC(=O)N1CCc2cc(S(=O)(=O)NCCN3CCCCC3CC)ccc21 (stereo unspecified) : active
Cc1ccc(NC(=O)NCC(c2ccccc2)N(C)C)cc1 (stereo unspecified) : inactive
CC1CCCCN1CCCNC(=O)c1nn(C)c2c1CSc1ccccc1-2 (stereo unspecified) : active
O=c1c2ccccc2nc(SCc2nc3ccccc3s2)n1CCCO : inactive
CC(=O)Nc1cccc(C(=O)OC(C(=O)c2ccc(C)cc2)c2ccccc2)c1 (stereo unspecified) : inactive
CCOc1ccc(S(=O)(=O)N2CCN(C(=S)NC3CC3)CC2)cc1 : inactive
